System: 313798-341-R-J2-PDC spheroids, viability
Test Method Notes: Anticancer human tumor 313798-341-R-J2-PDC patient-derived cervical squamous cell carcinoma cell line growth inhibition [PI3K]
Condition Context: second compound 1 µM; first compound 10 µM; hits give low values; spheroids with HUVEC and MSC
Observed Property: viability, T/C

Q: Could you share which viability, T/C value was measured for C#Cc1c(F)ccc2cc(O)cc(-c3ncc4c(N5CC6CCC(C5)N6)nc(OCC56CCCN5CC(F)C6)nc4c3F)c12 (stereo not drawn) + CC(Nc1ncnc2nc[nH]c12)c1cc2cccc(Cl)c2c(=O)n1-c1ccccc1 ?
Ans: 107%

Q: Could you share which viability, T/C value was measured for CC1(C)CCC(CN2CCN(c3ccc(C(=O)NS(=O)(=O)c4ccc(NCC5CCOCC5)c([N+](=O)[O-])c4)c(Oc4cnc5[nH]ccc5c4)c3)CC2)=C(c2ccc(Cl)cc2)C1 + Cc1nc(NC(=O)N2CCCC2C(N)=O)sc1-c1ccnc(C(C)(C)C(F)(F)F)c1 ?
Ans: 17.9%

// next item, viability, T/C requested
Q: Could you share which viability, T/C value was measured for Cn1nccc1Nc1nccc(-c2ccn(C(CO)c3ccc(Cl)c(F)c3)c(=O)c2)n1 (stereo not drawn) + COc1c(OCCCN2CCOCC2)ccc2c3n(c(=NC(=O)c4cnc(N)nc4)nc12)CCN3 ?
Ans: 2.53%

###

Tested on: 313798-341-R-J2-PDC spheroids, viability
Test Method Notes: Anticancer human tumor 313798-341-R-J2-PDC cell line growth inhibition [PI3K];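 further: spheroids exposed to compounds for seven days; 100% = DMSO vehicle control viability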
Condition Context: second compound 1 µM; first compound 0.316 µM; hits give low values; spheroids with HUVEC and MSC
Observed Property: viability, T/C (%)
Express the result in % but write the number alone.

Here's what some known entries look like.
Q: Could you share which viability, T/C value was measured for CCCS(=O)(=O)Nc1ccc(F)c(C(=O)c2c[nH]c3ncc(-c4ccc(Cl)cc4)cc23)c1F + Cc1nc(NC(=O)N2CCCC2C(N)=O)sc1-c1ccnc(C(C)(C)C(F)(F)F)c1 ?
Ans: 88.7

Q: Could you share which viability, T/C value was measured for CC(Cn1ccc(-c2ccc(C#N)c(Cl)c2)n1)NC(=O)c1cc(C(C)O)[nH]n1 (stereo not given) + CC(Nc1ccc2c(c1)OCCn1cc(N3C(=O)OCC3C(F)F)nc1-2)C(N)=O ?
Ans: 63.7

Q: Could you share which viability, T/C value was measured for CC1(C)CCC(CN2CCN(c3ccc(C(=O)NS(=O)(=O)c4ccc(NCC5CCOCC5)c([N+](=O)[O-])c4)c(Oc4cnc5[nH]ccc5c4)c3)CC2)=C(c2ccc(Cl)cc2)C1 + COc1c(OCCCN2CCOCC2)ccc2c3n(c(=NC(=O)c4cnc(N)nc4)nc12)CCN3 ?
Ans: 11.1

Q: Could you share which viability, T/C value was measured for Cn1ncc(Cl)c1-c1cc(C(=O)NC(CN)Cc2cccc(F)c2)sc1Cl (stereo not given) + COc1c(OCCCN2CCOCC2)ccc2c3n(c(=NC(=O)c4cnc(N)nc4)nc12)CCN3 ?
Ans: 13.6

Others:
Q: Could you share which viability, T/C value was measured for C#Cc1c(F)ccc2cc(O)cc(-c3ncc4c(N5CC6CCC(C5)N6)nc(OCC56CCCN5CC(F)C6)nc4c3F)c12 (stereo not given) + CC(Nc1ccc2c(c1)OCCn1cc(N3C(=O)OCC3C(F)F)nc1-2)C(N)=O ?
Ans: 61.2
